compounds and their reported DC50
Molecular target: IRAK4 (Homo sapiens)
Construct: endogenous in cells; host or cells: OCI-LY10
Assay: IRAK4 MSD Degradation in OCI-LY10
Type: cell-based
Conditions: OCI-LY10 cells, Meso Scale Discovery, incubated 4 to 24 hours

Record excerpt, results attached:
CC(C)(O)c1cc2nn([C@H]3CC[C@H](CN4CCC(c5ccc6c(N7CCC(=O)NC7=O)cncc6c5)CC4)CC3)cc2cc1NC(=O)c1cccc(C(F)(F)F)n1    < 10 nM
Cc1cccc(C(=O)Nc2cc3sc([C@H]4CC[C@H](CN5CCN(CCNc6cccc7c6C(=O)N(C6CCC(=O)NC6=O)C7=O)[C@@H](C)C5)CC4)nc3cc2C(C)(C)O)n1 (stereo partly drawn)    10 to 50 nM

Pending compound:
# get_value(readout='DC50', item= COc1cc2nc([C@H]3CC[C@H](C(=O)N4CCN(CCCNc5cccc6c5C(=O)N(C5CCC(=O)NC5=O)C6=O)CC4)CC3)sc2cc1NC(=O)c1cccc(C(F)(F)F)n1 (stereo partly drawn) ) 50 to 100 nM

---

compounds and their reported DC50
Molecular target: IRAK4 (Homo sapiens, UniProt Q9NWZ3)
Construct: endogenous in cells; host or cells: OCI-LY10
Sequence (Q9NWZ3 whole entry): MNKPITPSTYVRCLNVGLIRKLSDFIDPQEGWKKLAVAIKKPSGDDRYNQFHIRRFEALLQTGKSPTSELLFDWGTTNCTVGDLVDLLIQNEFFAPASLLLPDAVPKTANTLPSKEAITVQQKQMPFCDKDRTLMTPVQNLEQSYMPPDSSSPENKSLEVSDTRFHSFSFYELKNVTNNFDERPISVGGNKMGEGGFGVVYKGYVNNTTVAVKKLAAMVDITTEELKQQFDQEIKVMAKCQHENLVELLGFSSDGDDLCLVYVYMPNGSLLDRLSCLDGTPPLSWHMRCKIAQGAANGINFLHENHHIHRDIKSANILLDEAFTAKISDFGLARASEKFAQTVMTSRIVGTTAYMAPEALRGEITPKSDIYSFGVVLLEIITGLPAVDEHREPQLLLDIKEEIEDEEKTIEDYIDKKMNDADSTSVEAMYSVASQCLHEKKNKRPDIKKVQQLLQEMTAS
Assay: IRAK4 MSD Degradation in OCI-LY10
Format: cell-based
Conditions: OCI-LY10 cells, Meso Scale Discovery, incubated 4 to 24 hours

Cc1cc2nn([C@H]3CC[C@H](CN4C[C@@H]5C[C@H]4CN5c4cccc5c4n(C)c(=O)n5C4CCC(=O)NC4=O)CC3)cc2cc1NC(=O)c1cccc(C(F)(F)F)n1 (some centres unmarked)    < 10 nM
COc1cc2nn([C@H]3CC[C@H](CN4CC5(CCN(c6cccc7c6n(C)c(=O)n7C6CCC(=O)NC6=O)CC5)C4)CC3)cc2cc1NC(=O)c1cncc(C#N)c1 (some centres unmarked)    < 10 nM
CN(CCNc1cccc2c1C(=O)N(C1CCC(=O)NC1=O)C2=O)C[C@H]1CC[C@H](c2nc3cc(C(C)(C)O)c(NC(=O)c4cccc(C(F)(F)F)n4)cc3s2)CC1 (some centres unmarked)    10 to 50 nM

# get_value(readout='DC50', item= COc1cc2nn([C@H]3C[C@@H](CN(C)C4CCN(c5cccc6c5n(C)c(=O)n6C5CCC(=O)NC5=O)CC4)C3)cc2cc1NC(=O)c1cccc(C(F)(F)F)n1 (some centres unmarked) ) < 10 nM

# get_value(readout='DC50', item= CC(C)(O)c1cc2nc([C@H]3CC[C@H](C(=O)N4CCC5(CC4)CC(CCNc4cccc6c4C(=O)N(C4CCC(=O)NC4=O)C6=O)C5)CC3)sc2cc1NC(=O)c1cccc(C#N)n1 (some centres unmarked) ) 100 to 200 nM

---

compounds and their reported DC50
Molecular target: IRAK4 (Homo sapiens, UniProt Q9NWZ3)
Construct: endogenous in cells; host or cells: OCI-LY10
Test: IRAK4 MSD Degradation in OCI-LY10
Type: cell-based
Conditions: OCI-LY10 cells, Meso Scale Discovery, incubated 4 to 24 hours

Record excerpt, results attached:
Cc1ccc2c(c1C1CCN(C[C@H]3CC[C@H](n4cc5cc(NC(=O)c6cccc(C#N)n6)ccc5n4)CC3)CC1)n(C)c(=O)n2C1CCC(=O)NC1=O (stereo partly drawn)    < 10 nM
COc1cc2nn([C@H]3CC[C@H](CN4CCC5(CC4)CC(Nc4cccc6c4C(=O)N(C4CCC(=O)NC4=O)C6=O)C5)CC3)cc2cc1NC(=O)c1cnn2cccnc12 (stereo partly drawn)    < 10 nM
Cn1c(=O)n(C2CCC(=O)NC2=O)c2c(F)ccc(C3CCN(C[C@H]4CC[C@H](n5cc6cc(NC(=O)c7cccc(C(F)(F)F)n7)c(F)cc6n5)CC4)CC3)c21 (stereo partly drawn)    < 10 nM
COc1cc2nn([C@H]3CC[C@H](CN4CCC(c5c(C)ccc6c5n(C)c(=O)n6C5CCC(=O)NC5=O)CC4)CC3)cc2cc1NC(=O)c1cncc(Cl)c1 (stereo partly drawn)    < 10 nM
Cc1cc2nn([C@H]3CC[C@H](CN4CCN(c5cccc6c5n(C)c(=O)n6C5CCC(=O)N(C)C5=O)CC4)CC3)cc2cc1NC(=O)c1cccc(C(F)(F)F)n1 (stereo partly drawn)    > 200 nM

# get_value(readout='DC50', item= CC(C)Nc1c(C(=O)N[C@H]2CC[C@H](CN3CCN(c4cccc5c4n(C)c(=O)n5C4CCC(=O)NC4=O)CC3)CC2)cnc2c1Oc1ccc(C#N)cc1O2 (stereo partly drawn) ) > 200 nM
